sequences and their reported PBM binding z-score
- Tested on: PPARa:RXRa (NR concentration 270 nM, RXRa partner concentration 90 nM)
- Assay: PBM binding z-score (relative to random genomic background probes); higher = stronger binding; sequences stand for … in GC…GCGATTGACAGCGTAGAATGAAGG
Experimental readout: PBM binding z-score

>>> numeric_readout("TCATATAGGTAAATAGGTGAAAGTCCGTAAGTTA")
3.79
>>> numeric_readout("CGTCAAAGTTCAACTAAGGTAACGTCAAGCACGC")
5.14
>>> numeric_readout("CCTAGTTGGTCAAGGTCACTCACGCTATAGGTAC")
3.67
>>> numeric_readout("TATGCAGGGTCAAAGGCCAGAGTACGAATGTCGA")
6.1
>>> numeric_readout("ATCGAAAGGTCGAGGTGAGTCTAGAGAAAGGGAA")
4.63
>>> numeric_readout("AATACAGGGTCACTAGGCCAGAGTAGGTACGAAT")
6.03
>>> numeric_readout("CCTACTGGGCCATCAGGACATTGATATCAACGTT")
0.703
>>> numeric_readout("CCTATGAGTTGACCATAAGGGCAACCGAAGCTCG")
0.685
>>> numeric_readout("GCTTACGGGTCAAAGGTGATAGCATGAATAGAAT")
6.57
>>> numeric_readout("TAGCCTAGGTCATTAGGCCAGTATAGTACGCATC")
3.31
>>> numeric_readout("CCTGCTGGGCCAAAGGTCATTGATTCCAATGCTC")
5.78
>>> numeric_readout("CCTACTGGGCCAAAAAGGTCATGGATGCCGATAA")
5.2

---

- Test system: PPARg:RXRa 30nM:10nM, anti-RXR (NR concentration 30 nM, RXRa partner concentration 10 nM)
- Assay: PBM binding z-score (relative to random genomic background probes); higher = stronger binding; sequences stand for … in GC…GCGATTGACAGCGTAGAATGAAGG
sequences and their reported PBM binding z-score
Experimental readout: PBM binding z-score

>>> numeric_readout("TCATATAGGTAACCAGGTGAAAGTCCGTAAGTTA")
4.08
>>> numeric_readout("TCATATAGGTAATACAGGTGCAAGTCGGCATCTA")
3.75
>>> numeric_readout("CCAGACAGGTGTGAAGGTAACTCAGCCTCGATTA")
-0.615
>>> numeric_readout("AGACTGAGGTTACCAAAGATCAGGGAAACGCTTG")
0.351
>>> numeric_readout("ATATGTAGGTTATGGGGTCATTCAGTTTGCGCAT")
5.67
>>> numeric_readout("CGTCCAAGGTCAGCGAGGTCAGTGAATGCCGAGT")
0.896
>>> numeric_readout("GCTAGTTAGTCAGTAAAAGGTCACACACCGGTCG")
3.89
>>> numeric_readout("CCTCGGACGACAGAAGGTCAGAGCTGTCCGCTTT")
-1.06
>>> numeric_readout("TCTAGTTGGTCACCGAGGTCACACACGACGGGTA")
3.5
>>> numeric_readout("CGAACTAGGGCATGAGTTGATAGCAAATGCCGAT")
2.03
>>> numeric_readout("ATCTCAAGGTAAAAGTTCAGTGAATCCCGAGGAT")
2.83
>>> numeric_readout("CGTCAAAGTTCAAGGTAACCTAACAGAAAGCAGC")
1.93

---

- Tested on: RARb:RXRa (NR concentration 270 nM, RXRa partner concentration 90 nM)
- Assay: PBM binding z-score (relative to random genomic background probes); higher = stronger binding; sequences stand for … in GC…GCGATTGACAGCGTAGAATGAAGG
sequences and their reported PBM binding z-score
Experimental readout: PBM binding z-score

>>> numeric_readout("CCTACTGGGCCAAGAAAGGTCATTGATTCAGTGA")
3.89
>>> numeric_readout("CCTCGGAGAACAACAGGAGGTCAGAGCTGCCAGA")
2.01
>>> numeric_readout("TCGCCTAGGTCATTCAGGGGCCAGTATAGAAAGC")
3.96
>>> numeric_readout("TCATATAGGTAAATGCTAGGTGGAAGTCCGATCT")
0.253
>>> numeric_readout("TCTTGTAGATCAGCAAGTTAAGAAAGCTGGCCAA")
-0.472
>>> numeric_readout("GCGCGGAGGACAAGGTCAGAGCTTTGTCCGTAGA")
3.4
>>> numeric_readout("TCTAGTTGGTCAAAGGTTACACACTCGAAATGCG")
2.88
>>> numeric_readout("ACTTACGGGTCATCGAGGTTATAGCACGCGTATA")
4.11
>>> numeric_readout("CCTCACGGGTCACTCCAGGTTATAGCATCGGAGT")
3.69
>>> numeric_readout("TGAATGAGGTTAAAGATCAGGGAGCGTGGCGTCG")
1.78
>>> numeric_readout("CAAACTAGGTCACGAAAAGTCAAAGTCGAATGAC")
4.58
>>> numeric_readout("TCTGCTTGGTCAGTTGGTCAGCTAACGAGCTGCC")
0.775
>>> numeric_readout("GGAACGTGGGCATTCGAGTTGATAGCATGGCGAT")
-0.433
>>> numeric_readout("CGTACAGGGTCAGCTAGGCCAGAGTAGGGACGGC")
4.16
>>> numeric_readout("CCTACTGGGCCAAAAAGGTCATTGACGCCGATAA")
3.72
>>> numeric_readout("CCTAGTTGGTCAGGAGGTCACTCACCGGATATGA")
3.41
>>> numeric_readout("CATACAGGGTCAGCTAGGCCAGAGCAGGGACGGC")
4.15
>>> numeric_readout("AGTCAAAGTTCACAAGGTAACGTAAGATTCAGCT")
4.82
>>> numeric_readout("CAGCCTAGGTCAGCGCCAGTATAGGAGGAACGTT")
3.71
>>> numeric_readout("AGTCAAAGTTCATCTAGGAAACGTAAGATATGCT")
5.02
>>> numeric_readout("ATATGTAGGTTAGCTGGGGTCATTCAAACTAGGC")
3.18
>>> numeric_readout("ACTAGCAGGCCAAATTTGGGTCACTCAAACAAAG")
1.54
>>> numeric_readout("CCTACCGGGCCACGAAAGGTCATTGATTCAGTGA")
4.07
>>> numeric_readout("TCTATTAGTTGAAAGGCAACCGACGAGTCCGTTT")
0.44
>>> numeric_readout("AGATGTAGGTTATCGGGTCATTCAGTTTGCGCAT")
2.73
>>> numeric_readout("TCTCGGAGGACACGAAAGGTCAGAGGTCGACATC")
4.57

---

- System: PPARg homodimer (NR concentration 180 nM)
- Assay: PBM binding z-score (relative to random genomic background probes); higher = stronger binding; sequences stand for … in GC…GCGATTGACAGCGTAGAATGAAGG
Categorized via PBM binding z-score: I (below 0.6), II (0.6 to below 2), III (2 or more)

>>> label_value("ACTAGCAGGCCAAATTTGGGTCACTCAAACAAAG")
"II"
>>> label_value("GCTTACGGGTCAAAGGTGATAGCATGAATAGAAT")
"III"
>>> label_value("CCTTACGGGTCACTGACAGGTTATAGAATTTGGA")
"III"
>>> label_value("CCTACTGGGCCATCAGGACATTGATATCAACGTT")
"II"
>>> label_value("CCTATTAGTTGACCATAAGGGCAACCGTAGCTCG")
"II"
>>> label_value("CCTTACGGGTAAAGGTTATAGCACGGGTGGTACG")
"II"
>>> label_value("ATCTCTAGGTAACCAAGTTGAGTGAATGCCGAAC")
"I"
>>> label_value("CCTGCTAGGTCAATGGTAAGCTAAAGCAGCTCGC")
"II"
>>> label_value("ACTCCGAGGACAAAGGTCAGAGCTACGCCAGTGA")
"III"
>>> label_value("CCCAGCAGGCCAATCTGGGTCACTCAAGGCTTGA")
"I"
>>> label_value("CCTGACGGGTCACGAGGTTATAGCACGACGAGCG")
"III"
>>> label_value("TCTTGTAGATCAATCGAGGTTAAGAAAGTGCGCT")
"I"
>>> label_value("ACTAGTTGGTCAGCTGATGTCACACACAATTCGG")
"I"
>>> label_value("TGTCAAAGTTAAAAGGTAACGTAAGTATCCACAC")
"I"
>>> label_value("ATGTGTAGGTTATCGGGTCATTCAGTTTGCGCAT")
"III"
>>> label_value("ATCTCTAGGTAAAGTTAGTTCAGTGAATGCAAAT")
"II"
>>> label_value("GAAACAGGGTCAGCTAGAGGCCAGAGTATGGAAA")
"III"
>>> label_value("ACTATTAGATGACTTAGGGCAACCGATACGACGC")
"II"
>>> label_value("ATCTGTAGGTAAAGATAGTTCAGTGAATGCAAAT")
"II"
>>> label_value("ATACCAAGGCGATCGTGAGGTCGTTGATACTAAC")
"I"
>>> label_value("TAGCCTAGGACATTCAGGGGCCAGTATAGAAAGC")
"I"
>>> label_value("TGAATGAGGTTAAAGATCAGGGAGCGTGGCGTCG")
"I"
>>> label_value("CCGACTGGGGCATACGGTTACCATAAGCCAGCCC")
"I"
>>> label_value("TTACCACGGTGAGCTGAGGTCGTTGATCCAACTC")
"I"
>>> label_value("CCGACTGGGGCAAGGTTACCATGACGCACAGCCA")
"II"
>>> label_value("CCGACTGGGGCAAAGGTTACCAGACTCAGTACGA")
"II"
>>> label_value("TCTCGGAGGACACGAAAGGTCAGGGCTCGACATC")
"III"
>>> label_value("TCTAGCAGGCCAGAGGGTCACTCGAGAGGTACGG")
"I"
>>> label_value("ACAGACAGGTGAGTGAAGGTAACTCAACTGGACG")
"I"
>>> label_value("TCGAGTAGGTTACCAATGGGTCATTCAGCTTTCT")
"II"
>>> label_value("CCTAGTTGGTCAGGAGGTCACGCACCGGATATGA")
"III"
>>> label_value("TCTGCTAGGTCAACGATGTTCAGCTAATCTGCTA")
"II"
>>> label_value("GCGACTGCGGCAAAGCAGGTTACCATAAGGTTGG")
"I"
>>> label_value("ACTCTGAGGACAAAGGTCAGAGCTACGCCAGTGA")
"III"
>>> label_value("GCTGCTAGGTCAATTGATGGTCAGCTAAAGCTCG")
"II"
>>> label_value("ACAATGAGGTTATACGTAGATCAGGGAAGAAAGT")
"II"
>>> label_value("ACAGACGGGTGAGTGAAGGTAACTCAGCTGGACG")
"I"
>>> label_value("TCTATTAGTTGAAGGGCAAACGACGAGTCCGTTT")
"II"
>>> label_value("CGTCCAAGGTCAGCAGGTCAGTGAAAGCGACGTG")
"III"
>>> label_value("TCTGCTAGGTCAACGAAGGTCAGCTAATCTGCTA")
"III"
>>> label_value("CGTCCAAGGTCAATGCTAGGTCAGTCAAAGCATT")
"III"
>>> label_value("ACGAGCAGGCCAAGGGTCACTCAAGATTAGTCCG")
"II"
>>> label_value("ACTATTAGTTGACTTAGGGCAACCGGTACGACGC")
"I"
>>> label_value("CGAACTAGGTCATCCAGCACAGTGAATACATTGA")
"II"
>>> label_value("CGTCCAAGGTCGATGCTAGGTCAGTGAAAGCATT")
"II"
>>> label_value("GCTCGGAGGACAAGGTCCGAGCTTTGTCCGTAGA")
"I"
>>> label_value("CCTGCTGGGCCAAAAAGGTCATTGATGCCGATAA")
"III"
>>> label_value("CAAACTAGGTCAATGGTCAAAGTCGAGCCAACCA")
"II"

Where do the numbers come from? From the supplement of paper PMC6555819.
